| Compound Smiles | Unit Spec | melting point |
| --- | --- | --- |
| Sc1ncc[nH]1 | °C | 230 |
| CC(=O)c1ccc(Cl)cc1 | °C | 20 |
| O=C(O)c1ccc(O)c(C(=O)O)c1 | °C | 310 |
| OC(CCl)CCl | °C | -4 |

###

Entries and their melting point values follow.
Measured Attribute: melting point (°C)

| Compound | Recorded Measurement |
| --- | --- |
| Clc1cc(Cl)c(OCC#CI)cc1Cl | 114 |
| Oc1ccc(Cl)cc1 | 42.7 |
| O=C(O)Cc1cc(I)c(Oc2ccc(O)c(I)c2)c(I)c1 | 182 |
| CCC(COC(=O)c1cc(OC)c(OC)c(OC)c1)(c1ccccc1)N(C)C (stereo not given) | 79 |
| Fc1cc(F)c(F)cc1F | 4.5 |
| Nc1cccc(Oc2ccccc2)c1 | 37 |
| O=C=Nc1ccc(-c2ccccc2)cc1 | 56 |
| CC(C)NCC(O)COc1ccc(CCOCC2CC2)cc1 (stereo not given) | 71 |
| COC(=O)c1cccc(C(=O)OC)c1 | 67.5 |
| CCCCOC(=O)c1ccc(N)cc1 | 58 |
| Cc1cc(Cl)ccc1N=CN(C)C | 35 |
| CCC(C)(C)OC(N)=O | 86 |
| Cc1cn(C)c2ccccc12 | 142 |
| Cc1c(N)cccc1[N+](=O)[O-] | 92 |
| ClC#CCl | -66 |
| Cc1ccc[n+]([O-])c1 | 39 |
| c1cnc(N2CCN(Cc3ccc4c(c3)OCO4)CC2)nc1 | 98 |
| OCCN(CCO)c1nc(N2CCCCC2)c2nc(N(CCO)CCO)ncc2n1 | 158 |
| CN(C)NC(=O)CCC(=O)O | 154 |
| O=C(O)c1ccc(C(=O)O)s1 | 359 |
| CCS(=O)(=O)c1cccnc1S(=O)(=O)NC(=O)Nc1nc(OC)cc(OC)n1 | 177 |
| CCCCCCCCC(C(=O)O)C(=O)O | 116 |
| CCCc1ccc(O)cc1 | 22 |
| NC(=O)OCC(O)COc1ccc(Cl)cc1 (stereo not given) | 90 |
| CCC(Br)(CC)C(=O)NC(=O)NC(C)=O | 109 |
| CON=C(C)c1cccc(Oc2nc(OC)cc(OC)n2)c1C(=O)OC | 107 |
| CCCCCCCCCCCCCCCC(OC)OC | 10 |
| Cc1ccc(OC(=O)c2ccccc2)cc1 | 71.5 |
| CC(C)COC(N)=O | 67 |
| CC[C@H]1C[N@@]2CC[C@H]1C[C@H]2[C@H](O)c1ccnc2ccc(OCCC(C)C)cc12 | 152 |
